Source listed as patent US20240010720A1.

- target: T1, His-tagged extracellular domain (ECD) of human IGSF11 (VSIG3) (human, UniProt Q5DX21 23-241)
- T1 construct: partly bought (SinoBiological 13094-H08H); also called IGSF11-HIS; HIS-IGSF11; not shown: HIS6 tag
- T1 sequence: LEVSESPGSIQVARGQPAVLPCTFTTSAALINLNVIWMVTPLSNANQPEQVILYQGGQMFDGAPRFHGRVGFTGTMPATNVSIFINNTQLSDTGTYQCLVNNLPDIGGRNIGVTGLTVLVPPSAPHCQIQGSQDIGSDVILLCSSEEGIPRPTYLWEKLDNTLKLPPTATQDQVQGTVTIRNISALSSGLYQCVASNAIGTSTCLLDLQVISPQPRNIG
- experimental_protocol: ELISA EC50 grade, IgG1
pEC50: −log10 of the molar value.

{"binder": "A-035 (IgG1 format) (antibody, V domains shown, human IgG1 format) VH: QVQLVQSGAEVKKPGASVKVSCKASGYTFTGYYMHWVRQAPGQGLEWMGWINPNSGNTGYAQKFQGRVTMTRNTSISTAYMELSSLRSEDTAVYYCARGRLERGYWYFDLWGRGTLVTVSS VL: NFMLTQPHSVSESPGRTVTISCTRSSGSITSNYVQWYQQRPGSAPTILIYEDKERPSEVPDRFSGSIDISSNSASLTISGLKTEDEADYYCQSYGGTSQGVLFGGGTKVTVL", "pEC50": "10.30 to 10.70"}
{"binder": "A-012 (IgG1 format) (antibody, V domains shown, human IgG1 format) VH: EVQLLESGGGLIQPGGSLRLSCAVSGFTVSSNYMSWVRQAPGKGLEWVSVIYSGGSTYYADSVKGRFTISRDNSKNTLYLQMNSLRAEDTAVYYCARGNPYYYGDLQVNFDYWGQGTLVTVSS VL: QAVVTQEPSLTVSPGGTVTLTCASSTGAVTSGYYPNWFQQKPGQAPRALIYSTSNKHSWTPARFSGSLLGGKAALTLSGVQPEDEAEYYCLLYYGGAWVFGGGTKLTVL", "pEC50": "10.30 to 10.70"}
{"binder": "A-025 (IgG1 format) (antibody, V domains shown, human IgG1 format) VH: QVQLVQSGAEVKKPGSSVKVSCKASGGTFSSYAISWVRQAPGQGLEWMGGIIPIFGTANYAQKFQGRVTITADESTSTAYMELTSLRSEDTAVYYCARGGWLRQNWFDPWGQGTLVTVSS VL: SSELTQDPAVSVALGQTVRITCQGDSLRSYYASWYQQKPGQAPVLVIYGKNNRPSGIPDRFSGSSSGNTASLTITGAQAEDEADYYCNSRDSSGNHPRVFGGGTKLTVL", "pEC50": "9.00 to 10.30"}
{"binder": "A-004 (IgG1 format) (antibody, V domains shown, human IgG1 format) VH: EVQLVESGGGLVKPGGSLRLSCAASGFTFSSYSMNWVRQAPGKGLEWVSSISSSSSYIYYADSVKGRFTISRDNAKNSLYLQMNSLRAEDTAVYYCARGQLLWFGESALIDAFDIWGQGTMVTVSS VL: EIVLTQSPSSLSASVGDRVTITCRASQSISSYLNWYQLKPGKAPKLLIYAASILQSGVPSRFSGSGSGTDFTLTISSLQPEDFAAYYCQQSYSTPRTFGQGTKLEIK", "pEC50": "> 10.70"}
{"binder": "A-027 (IgG1 format) (antibody, V domains shown, human IgG1 format) VH: QVQLVQSGAEVKKPGSSVKVSCKASGGTFSSYAISWVRQAPGQGLEWMGGIIPIFGTANYAQKFQGRVTITADKSTSTAYMELSSLRSEDTAVYYCARARGSTWGYFDYWGQGTLVTVSS VL: EIVLTQSPASLSLSPGERVTLSCRASQSVSNYLAWYQQKPGQAPRLLIYDASNRATGIPARFSGSGSGTDFTLTISSLEPEDFAVYYCQQRDNWPLTFGGGTKVEIK", "pEC50": "< 9.00"}
